# Test system: K4 kissing-loop RNA reporter;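 also: bound reporter read as fluorescence of individual clusters on recovered sequencing chips by microscopy, with normalized cluster intensities fitted with a binding model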
# Protocol Description: apparent KD of K4 kissing-loop reporter; higher = weaker reporter binding
# Condition Info: Eterna round: R107; input ligand: FMN 200 uM
# cutoff 0.3 µM applies to apparent KD of K4 kissing-loop reporter; >= gives yes, < gives no

>>> assigned_category("CUUGGAAGGACGGCCGCCACUGGGCAGUGAUGUUGCCCGAGUUGGUAACGCAGUGAUGUUGCGUCCAGGACCGGGUCCUAGGAAU [Exclusion Tryptophan B GF 25]")
"no"

Quick check: does CUCUUCUUUCUUUUAGUGAUGUUAAAUUAGCGAGGACCGGUACGGCCGCCACUCGUAUAGCUGGAAUGACUGUGCGAGGGUUUGU have apparent KD of K4 kissing-loop reporter greater than or equal to 0.3 µM? yes

Tell me whether apparent KD of K4 kissing-loop reporter is at least 0.3 µM here: UGCUUUAUCAGAAGGAGCGCGUAAGUUAUACUAAUAAUCAGUGAUGUUGAUAUAUGAUCUUUGCAGGUAGGUCGCUGAUAUAGCU [KL-XARG-B4] yes

Does apparent KD of K4 kissing-loop reporter meet or surpass 0.3 µM for UGAUAGGACAGAAGGAGCGGAGCUGGUCAAAGACCAGCAAUACGUUGAAAAGGAGUGAUGUUCCAGGUAGGUCGCUGUCCUAUCU [ArgBX 27 #SwitchBubble #StaticStem] ? no

Textbook exercise: given the entry AAAAUAAACCAGUGAUGUUGGUGUCUAGAUACCAGCGACGAAAGUCGCCCUUGGCAGCUGUGGACGUACAAAAUAAGUACGUCCU [MatMod 5 - Jieux - Same State - Theophylline A] , state whether its apparent KD of K4 kissing-loop reporter is greater than or equal to 0.3 µM. yes

Please tell me: is the sequence ACCUACCAUUAGUGAUGUUAAUGGACGGAAGGAGCGCAGAUAUCUGCAGGUAGGUCGCCGAAGGCUAGACAUUGUCUAGCCAUUA [AK1.1 SS Arginine A] at or over 0.3 µM in terms of apparent KD of K4 kissing-loop reporter? no

Assess whether reported apparent KD of K4 kissing-loop reporter for UUUAAAUAUAGUGAUGUUAUAUAACAAUGACGAGGACCGGUACGGCCGCCACUCGAGAGAGAUAAUGAUAAAAUAAAUAAUUUUC [AstrosSSTrypA#1] sits at 0.3 µM or higher. yes

Check this sequence for apparent KD of K4 kissing-loop reporter at or above 0.3 µM: UGGUUUAACUGAAGGAGCGGCAAUUGAUAAGUAGAUAUAGUGAUGUUAUAUAAGAUAGAGAGCCAGGUAGGUCGCAGAGGUGUUU [ExArgB.Q] no

====

# Test system: MS2 coat protein
# Protocol Description: apparent KD of MS2 coat protein; designed switch direction (-1 OFF switch, 1 ON switch): 1; higher = weaker reporter binding
# Condition Info: Eterna round: R95; input ligand: microRNA oligo, concentration not stated
Reported apparent KD of MS2 coat protein is given for each of the following sequences.
Write your answer as a measured quantity: the number, then the unit.

>>> obs_value("GCGGAACAUGAGGAUCACCCAUGUGGAGGGUGUAAAGGAUAUUAUAGAGAGAAGGUAGGGUAAGAAGGUUGCUGGG [JR_SS1_Sub090] (puzzle: Same State 1)")
"320 nM"
>>> obs_value("GUGGUGUAGAUACAGGAUAUGUUGCUCGUAACAUGAGGAUCACCCAUGUAUCUAUGAGAAUAAAUGCAGAAGGGUGCACACCACU [Mat - Same State 2 - Mod of UCT - D74] (puzzle: Same State 2)")
"467 nM"
>>> obs_value("GUGUUACAUGAGGAUCACCCAUGUUGUUGUAGAUAAGGAUAUAUGGUAACGAGAGAAAUAAUAGAAGGUAUUAGGC [JR_SS1_Sub061] (puzzle: Same State 1)")
"34.7 nM"

Fill in: apparent KD of MS2 coat protein of AGUCCAGCCAAAGCUGGACAAAAGCAUGUACAUGAGGAUCACCCAUGUCAUGUACAAGCUUUUUGCUCGUCUUAAUA [Mat - hsa-mir-208a - Mod of JL - D38] (puzzle: Sensor for hsa-mir-208a) is ___ 16 nM

====

# Test system: MS2 coat protein
# Protocol Description: apparent KD of MS2 coat protein; designed switch direction (-1 OFF switch, 1 ON switch): -1; higher = weaker reporter binding
# Condition Info: Eterna round: R95; input ligand: microRNA oligo, concentration not stated
Observable: apparent KD of MS2 coat protein

>>> obs_value("CAUGGAACAUAGGAUAUCUCGCGGCUAGACUGCAGAGAAGGAUGUACAUGAGGAUCACCCAUGUAUGAUCCAGU [Leisceza] (puzzle: Exclusion 6)")
"15.8 nM"
>>> obs_value("AUACACUUAGUGAGGAUAUCGUUUUCUUUACGGAUCGAGAAGGCACAUGAGGAUCACCCAUGUUUGACGUGAAU [JR_BMOE4_Sub095] (puzzle: Brourd's mod of Exclusion 4)")
"20.5 nM"
>>> obs_value("CUAUUACGAGGAUAUGAUUUAAAUAACAUGAGGAUCACCCAUGUUUUUACGUUAUUUUAUUUAGAAGGCGUAUAGU [JR_E5_Sub029] (puzzle: Exclusion 5)")
"42 nM"
>>> obs_value("AUGAGCAGACGGAGAUCCAACAUGAGGAUCACCCAUGUCUCAAAAGCUUUUUGCUCAUCUUAUCGUACCUUGGUGCU [Mat - Sensor v3 - turn-off var 1 - JL Mod - D13] (puzzle: Sensor v3, turn-off variant 1)")
"15.4 nM"
>>> obs_value("AAUAACUGAGGAUAUACUAAAAUAUGAAUAAAAUAAAUAAAACAUGAGGAUCACCCAUGUAGAAGGCAGAAUAA [JMF's Not so obvious solution 8] (puzzle: Exclusion 2)")
"23.3 nM"

So what apparent KD of MS2 coat protein did UCGUGGUAAAUCAGGUGAUGUCUGAUAGGAUGGACUUUGACAUGAGGAUCACCCAUGUUGCUUUUUGCCCGUCUUAA [JR_SV3TOV2_Sub044] (puzzle: Sensor v3, turn-off variant 2) get with MS2 coat protein? 27.3 nM

API: value(readout=apparent KD of MS2 coat protein, system=MS2 coat protein) for record AAAGAGCGAGGAUAUACAUGAGGAUCACCCAUGUAAAGAUGCAUGGUCUGAACGUCUGGUAGAAGGCGUAUGAA [Diatater] (puzzle: Exclusion 3) 98.7 nM

Requested read-out apparent KD of MS2 coat protein, target or system MS2 coat protein, entry CUGAGCAGACGGAGAUCCAACAUGAGGAUCACCCAUGUCUCAUAAGCUUUUUGUUCAUCUUAUUGUACCUUGGUGCU [JL ViennaUCT Edcesobi mod 4] (puzzle: Sensor v3, turn-off variant 1) 24.6 nM

Kindly state the measured apparent KD of MS2 coat protein obtained for GCGAAAGCAAGCAAGUGAAACAUGAGGAUCACCCAUGUCCUCAUUUGCUCGUCUUAUAAAAGCUAUCGAAAGAUAGC [Sensor 3, v1 - 1] (puzzle: Sensor v3, turn-off variant 1) with MS2 coat protein. 172 nM

====

# Test system: MS2 coat protein
# Protocol Description: apparent KD of MS2 coat protein; designed switch direction (-1 OFF switch, 1 ON switch): 1; higher = weaker reporter binding
# Condition Info: Eterna round: R98; input ligand: none
Assign t to entries whose apparent KD of MS2 coat protein meets or exceeds 100 nM; assign f to the rest.

Example cases with answers are listed next.
>>> assigned_category("CAUAUAUGGUGAGGAUAUGCAAAGGAUCACCUUGUAGAAGGCAUCAGGGUAGAAGGUGCAAGGAUCACCUGUAAGGAUAUAUCC [pwkr2 ssNG1 DX.26]")
"t"
>>> assigned_category("CCCUUUAGAAAAGGGACAUGAGGAUCACCCAUGUAGGCUGCACAGGAUAUCGAUCGGAGGCGGUACGAGAAGGGUGACGUCAUU [Zaarqu]")
"f"
>>> assigned_category("ACAUACAUUCGAGGAUAUCGGUGAACAAAUUAACGAGAAGGCGAUAUAAUUUUUAAUCUUAUAAACAUGAGGAUCACCCAUGUA [JR_SSNG1_Sub001]")
"f"
>>> assigned_category("AAAACAUGAGGAUCACCCAUGUAUAGAUCGAUUAUUAGGAGUGAGGAUAUGCAAGUUAUAAGGAAGCAGAAGGCACAGGGAAAA [JR_SSNG3_Sub073]")
"f"
>>> assigned_category("GGACUCACUUGAGGAUAUCGAGUGGAAUACACUCGAGAAGGCAGGGAAACCUGAGGAUCACCCAGGUAAGAGUCCAAUAAUAAA [Same State NG1 - A3C, U17G Submission 2C]")
"f"

Check if apparent KD of MS2 coat protein >= 100 nM (inclusive). Item: AAGAUACUUACAGGAUAUAGGGCAGAGGGUGCCCUAGAAGGGUGAACAUGAGGAUCACCCAUGUAUGUAUCUGAUUAGAAGGCA [Lezaraoren] f

Is reported apparent KD of MS2 coat protein greater than or equal to 100 nM here: GCUUGCGACGCAGGAUAUGGGUGCCUAAACACGAGGAUCACCCGUGUACAGGAAGCGAAAAGCUCUCAGAAGGGCGUCGCAGGC [United States 8 - Jieux - Same State NG 2] f

I'd appreciate it if you could say whether GCUGCUAUCGCAGGAUAUUACAUGGGAAAGAAUACAUGAGGAUCACCCAUGUAAAAGAUCGUAAAUAAGAAGGGCGAUAGCAGC [Lame State 5 - Jieux - Same State NG 2] has apparent KD of MS2 coat protein at least equal to 100 nM. t
